System: biotinyl-Phe-oxazolone
test_details: self-aminoacylation, catalytic enhancement (BFO) (fold over background); higher = more active; k-Seq, kA / k0A0; sequences stand for … in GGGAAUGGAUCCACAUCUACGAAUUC…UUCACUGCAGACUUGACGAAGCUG
Fewer inactive variants are shown than the library holds.
true means recorded self-aminoacylation is 9 or above; false means it is below 9.

Worked examples, 4 sequences total:
| sequence_text | label_class |
| --- | --- |
| AUACACCUAGGUCGUCGGGUG [Fam2.2 aminoacylation ribozyme variant] | false |
| CCACACUUCGGGCAAUCGGUC [Fam1B.1 aminoacylation ribozyme variant] | true |
| AACUUUGCUAAUGGUCGCAAG [Fam3.1 aminoacylation ribozyme variant] | true |
| CUACACUUCAAGAAAUCGGUC [Fam1B.1 aminoacylation ribozyme variant] | false |

Can AUUACCCUGGUCAUCAAGUGC [Fam2.1 aminoacylation ribozyme variant] be said to have self-aminoacylation at or above 9?
false

* * *

Field: self-aminoacylation. Provide a value for each of the sequences that follow.
System: biotinyl-Trp-oxazolone
test_details: self-aminoacylation, catalytic enhancement (BWO) (fold over background); higher = more active; k-Seq, kA / k0A0; sequences stand for … in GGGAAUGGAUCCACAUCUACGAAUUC…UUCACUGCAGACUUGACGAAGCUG
Variants at the floor of the assay were thinned out.
Give bare numbers.

Sample answers from the record:
| sequence_text | measured_parameter | reported |
| --- | --- | --- |
| AUACACCUAGAUCAUCGGGUG [Fam2.2 aminoacylation ribozyme variant] | self-aminoacylation | 3.43 |
| AAGCUUGCUAAUCGUCGCAAG [Fam3.1 aminoacylation ribozyme variant] | self-aminoacylation | 2.85 |
| AAGUUUGCUAAUUGUCGCUAG [Fam3.1 aminoacylation ribozyme variant] | self-aminoacylation | 1.08 |

Hey, quick one: what's self-aminoacylation for each of these?
1. CCACACUUCAAGCAAUCGGCA [Fam1B.1 aminoacylation ribozyme variant]
2. AUUACCCUGGUCACCAAGUGA [Fam2.1 aminoacylation ribozyme variant]

1. 1.28
2. 7.7

* * *

Field: self-aminoacylation. Provide a value for each of the sequences that follow.
System: biotinyl-Ile-oxazolone
test_details: self-aminoacylation, catalytic enhancement (BIO) (fold over background); higher = more active; k-Seq, kA / k0A0; sequences stand for … in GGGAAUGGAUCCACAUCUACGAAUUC…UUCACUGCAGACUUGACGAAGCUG
Variants at the floor of the assay were thinned out.
Numbers only.

| sequence_text | test_target | reported |
| --- | --- | --- |
| GUACUUCAAACAAGCGGUCUG [Fam1A.1 aminoacylation ribozyme variant] | biotinyl-Ile-oxazolone | 1.78 |
| AGUCACCUAGGUCUUCGGGUG [Fam2.2 aminoacylation ribozyme variant] | biotinyl-Ile-oxazolone | 6.51 |
| CCACAGUUCAAGCAAUCAGUC [Fam1B.1 aminoacylation ribozyme variant] | biotinyl-Ile-oxazolone | 0.829 |
| CUACUACAAACAAUGGGUCUG [Fam1A.1 aminoacylation ribozyme variant] | biotinyl-Ile-oxazolone | 1.07 |
| CUACACUUCAGGCAAUCGGUC [Fam1B.1 aminoacylation ribozyme variant] | biotinyl-Ile-oxazolone | 1 |
| UUUACCCUGGUAAUCGAGUGA [Fam2.1 aminoacylation ribozyme variant] | biotinyl-Ile-oxazolone | 4.2 |

Hey, quick one: what's self-aminoacylation for each of these?
1. CUACUUCAUACAAUGGGUCUG [Fam1A.1 aminoacylation ribozyme variant]
2. AUGACCCUGGUCACCGAGUGA [Fam2.1 aminoacylation ribozyme variant]

1: 0.805; 2: 3.68

* * *

Field: self-aminoacylation. Provide a value for each of the sequences that follow.
Test system: biotinyl-Leu-oxazolone
test_details: self-aminoacylation, catalytic enhancement (BLO) (fold over background); higher = more active; k-Seq, kA / k0A0; sequences stand for … in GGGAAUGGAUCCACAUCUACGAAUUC…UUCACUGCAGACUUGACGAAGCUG
Fewer inactive variants are shown than the library holds.
One number for each entry.

Sample answers from the record:
| sequence_text | self-aminoacylation |
| --- | --- |
| AUACACCUAGAUCAUCGGGUG [Fam2.2 aminoacylation ribozyme variant] | 2.73 |
| AUUCACGUAAGUCAUCGGGUG [Fam2.2 aminoacylation ribozyme variant] | 20.4 |
| AGUCACCUAGGACAUCGGGUG [Fam2.2 aminoacylation ribozyme variant] | 4.11 |
| CCACACUUCAAGCAAUCGUUG [Fam1B.1 aminoacylation ribozyme variant] | 0.776 |
| CUAAUUCAAACAAUCGCUCUG [Fam1A.1 aminoacylation ribozyme variant] | 0.527 |

Hey, quick one: what's self-aminoacylation for each of these?
1. AUUACCCUGGUGAUCGAAUGA [Fam2.1 aminoacylation ribozyme variant]
2. AUUCACCUAGGUGACCGGGUG [Fam2.2 aminoacylation ribozyme variant]
3. CCACACAUCAAGCAAUCGGAC [Fam1B.1 aminoacylation ribozyme variant]
4. AUUCACCUAGGACAUCGGGUC [Fam2.2 aminoacylation ribozyme variant]

1. 1.02
2. 5.29
3. 0.808
4. 1.42

* * *

Test system: biotinyl-Met-oxazolone
test_details: self-aminoacylation, catalytic enhancement (BMO) (fold over background); higher = more active; k-Seq, kA / k0A0; sequences stand for … in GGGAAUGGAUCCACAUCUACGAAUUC…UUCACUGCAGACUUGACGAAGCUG
Fewer inactive variants are shown than the library holds.
Fulfilled means recorded self-aminoacylation is 0.8 or above; Not fulfilled means it is below 0.8.

| sequence_text | label_class |
| --- | --- |
| CCACACAUUAAGCAAUCGGUC [Fam1B.1 aminoacylation ribozyme variant] | Not fulfilled |
| CUAAUUCAAACAAUCGGUCUA [Fam1A.1 aminoacylation ribozyme variant] | Not fulfilled |
| AUCCACCUAGGUUAUCGGGUG [Fam2.2 aminoacylation ribozyme variant] | Fulfilled |

Can AAGUUUGCUACUAGUCGUAAG [Fam3.1 aminoacylation ribozyme variant] be said to have self-aminoacylation at or above 0.8?
Fulfilled

Can GUUCACCUAGGUCAUCCGGUG [Fam2.2 aminoacylation ribozyme variant] be said to have self-aminoacylation at or above 0.8?
Fulfilled

Can AUUACCCUAGUCUUCGAGUGA [Fam2.1 aminoacylation ribozyme variant] be said to have self-aminoacylation at or above 0.8?
Fulfilled

Can CCACACUUCAAGCCAUCUGUC [Fam1B.1 aminoacylation ribozyme variant] be said to have self-aminoacylation at or above 0.8?
Not fulfilled

Can AUACUUCAAACAAUCGGUAUG [Fam1A.1 aminoacylation ribozyme variant] be said to have self-aminoacylation at or above 0.8?
Not fulfilled

* * *

Tested on: biotinyl-Phe-oxazolone
test_details: self-aminoacylation, catalytic enhancement (BFO) (fold over background); higher = more active; k-Seq, kA / k0A0; sequences stand for … in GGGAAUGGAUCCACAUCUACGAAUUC…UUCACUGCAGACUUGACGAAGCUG
Fewer inactive variants are shown than the library holds.
Field: self-aminoacylation. Provide a value for each of the sequences that follow.

| sequence_text | measured_parameter | reported |
| --- | --- | --- |
| CUUCACCUAGAUCAUCGGGUG [Fam2.2 aminoacylation ribozyme variant] | self-aminoacylation | 8.35 |
| AAGUUUGCUAAUAGUAGCAAC [Fam3.1 aminoacylation ribozyme variant] | self-aminoacylation | 1.08 |
| AUUACUCUAGUCAUCGAGUGA [Fam2.1 aminoacylation ribozyme variant] | self-aminoacylation | 19.1 |
| CUAUUUCAAAUAAUCGGUCUG [Fam1A.1 aminoacylation ribozyme variant] | self-aminoacylation | 3.5 |
| CCUCACUUCAAGCAAUCGGUA [Fam1B.1 aminoacylation ribozyme variant] | self-aminoacylation | 1.91 |

Hey, quick one: what's self-aminoacylation for each of these?
1. AUUCACCUAGCUCAUCGGGUG [Fam2.2 aminoacylation ribozyme variant]
2. AAGUUUGCUAAUAGUAGCAAU [Fam3.1 aminoacylation ribozyme variant]
3. AUUACGCUGGUCAUCGACUGA [Fam2.1 aminoacylation ribozyme variant]
4. GUACUUCAAUCAAUCGGUCUG [Fam1A.1 aminoacylation ribozyme variant]
5. AAGUUUCCUAGUAGUCGCAAG [Fam3.1 aminoacylation ribozyme variant]
6. CUACUUCAACCAAUCGGUCAG [Fam1A.1 aminoacylation ribozyme variant]
7. AUUCACGUAGGUCACCGGGUG [Fam2.2 aminoacylation ribozyme variant]

1: 7.85; 2: 1.15; 3: 0.691; 4: 21.9; 5: 1.27; 6: 6.18; 7: 62.5

Hey, quick one: what's self-aminoacylation for each of these?
1. CAACACUUCAAGCAAUCGGUG [Fam1B.1 aminoacylation ribozyme variant]
2. AAGUGUGCUAAUAGUCGGAAG [Fam3.1 aminoacylation ribozyme variant]
3. AAGUAGGCUAAUAGUCGCAAG [Fam3.1 aminoacylation ribozyme variant]
4. AUUCAACUAGGUCAUUGGGUG [Fam2.2 aminoacylation ribozyme variant]
5. CCACACUUCAAACAAUCGGUA [Fam1B.1 aminoacylation ribozyme variant]

4.92
11
3.24
23.7
1.62

get_value(item= AAGUUUGCCAAUAGUCGCGAG [Fam3.1 aminoacylation ribozyme variant] , readout=self-aminoacylation) returns 11.6

Ref: the supplement of paper PMC9233669
